Measured pIC50, listed per entry for reference.
Measured On: CYP2B6 (Homo sapiens, UniProt P20813)
Sequence (P20813 1-491): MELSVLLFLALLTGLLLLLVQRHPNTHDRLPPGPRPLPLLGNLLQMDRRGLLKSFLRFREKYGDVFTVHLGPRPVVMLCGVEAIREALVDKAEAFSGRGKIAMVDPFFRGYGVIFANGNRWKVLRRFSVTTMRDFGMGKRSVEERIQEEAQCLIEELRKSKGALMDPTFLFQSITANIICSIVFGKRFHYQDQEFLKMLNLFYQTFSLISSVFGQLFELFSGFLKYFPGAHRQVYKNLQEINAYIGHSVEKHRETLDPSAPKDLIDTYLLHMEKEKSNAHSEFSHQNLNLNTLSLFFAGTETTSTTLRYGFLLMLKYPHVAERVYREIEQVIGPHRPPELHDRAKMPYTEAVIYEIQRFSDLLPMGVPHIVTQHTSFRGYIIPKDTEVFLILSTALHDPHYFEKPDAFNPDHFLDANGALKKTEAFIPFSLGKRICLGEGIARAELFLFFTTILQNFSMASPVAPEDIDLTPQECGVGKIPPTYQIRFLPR
pIC50: −log10 of the molar value.

| Smiles Record | Measured On | pIC50 |
| --- | --- | --- |
| CO[P@](=O)(c1cc(C)cc(/C=C/C#N)c1)c1c(C(N)=O)[nH]c2ccc(Cl)cc12 | CYP2B6 (Homo sapiens, UniProt P20813) | < 4.70 |
| CO[P@](=O)(c1cc(C)cc(/C=C/C#N)c1)c1c(C(N)=O)[nH]c2ccc(Cl)c(F)c12 | CYP2B6 (Homo sapiens, UniProt P20813) | < 4.70 |

====

Test system: HIV-1 W.T. strains BH10, NL4-3 and IIIB
Measurement Protocol: Drug susceptibility assays, 3 W.T. strains in 5 human cell lines (ranges)
Assay type: cell-based
Measurement Setup: Human immunodeficiency virus 1; read-out: EC50 range, 3 HIV-1 viral strains in 5 host human cell lines
From the text: The virus and host-cell dependency of Compound I, Compound III and control drugs was further examined in drug susceptibility assays performed across 3 different subtype B wild-type HIV-1 strains and 5 different cell lines.
Measured EC50, listed per entry for reference.
Parameter: EC50

| Compound | Measured Value |
| --- | --- |
| CO[P@](=O)(c1cc(C)cc(/C=C/C#N)c1)c1c(C(N)=O)[nH]c2ccc(Cl)cc12 [Compound III] | 0.5 to 1.7 nM |
| O=C1Nc2ccc(Cl)cc2C(C#CC2CC2)(C(F)(F)F)O1 (centres unmarked) [EFV, reference compound] | 0.4 to 3.2 nM |

====

Measurement Protocol: Cellular cytotoxicity, 4 days, MTS, MOLT-4
Assay type: cell-based
Measurement Setup: human, Table 21, read-out: Average CC50 Values ± Standard Deviation, MOLT-4

| Compound | CC50 at 4 days [µM] |
| --- | --- |
| CO[P@](=O)(c1cc(C)cc(/C=C/C#N)c1)c1c(C(N)=O)[nH]c2ccc(Cl)c(F)c12 [Compound I] | 16.6 |

====

Measurement Protocol: Compound depletion in hepatocytes, monkey
Assay type: in vitro ADME
Measurement Setup: fresh hepatocytes plated on collagen-coated plates, up to 2 hours, read-out: t½, Compound Depletion in Hepatocytes, Monkey

| Smiles Record | half-life at 1 μM |
| --- | --- |
| CO[P@](=O)(c1cc(C)cc(/C=C/C#N)c1)c1c(C(N)=O)[nH]c2ccc(Cl)cc12 | 52 min |
